Biological target: T1, CD24-GST fusion protein
T1 chain: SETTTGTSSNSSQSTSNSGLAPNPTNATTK
Assay: competitive ELISA
measuredParameter: IC50 (µg/mL)
Entry rule: numbers only, all in µg/mL.

Prompt: Fill in IC50 for record PP6371 (antibody, V domains shown) VH: EVKFEESGGGLVQPGGSIKLSCAASGVTFSEAWMDWVRQTPEKGLEWVAEIRDRETKYVTYYAESVKGRFTISRDDSKSRVYLQMNNLRTEDTGIYYCTGAMDYWGQGTSVTVSS VL: DIVMTQTPLSLSVTIGQPASISCKSSQSLLYSNGKTYLNWLQQRPGQSPKRLIYQVSKLDPGIPDRFSGSGSETDFTLKISRVEAEDLGIYYCMQGTSLPWTFGGGTKLEIKR
Completion: 0.0345

Prompt: Fill in IC50 for record PP6372 (antibody, V domains shown) VH: EVKFEESGGGLVQPGGSIKLSCAASGVTFSEAWMDWVRQSPEKGLEWVAEIRDKQNEYVTYYAESVKGRFTISRDDSKSRVYLQMNNLRTEDTGIYYCTGAMDYWGQGTSVTVSS VL: DIVMTQTPLSLSVTIGQPASISCKSSQSLLYSNGKTYLNWLQQRPGQSPKRLIYQVSKLDPGIPDRFSGSGSETDFTLKISRVEAEDLGIYYCMQGSSLPWTFGGGTKLEIKR
Completion: 0.0269

Prompt: Fill in IC50 for record PP6236 (antibody, V domains shown) VH: EVKFEESGGGLVQPGGSIKLSCAASGVTFSEAWMDWVRQSPEKGLEWVAEIRDNTTNYVTYYAESVKGRFTISRDDSKSRVYLQMNNLRTEDTGIYYCTGAMDYWGQGTSVTVSS VL: DIVMTQTPLSLSVTIGQPASISCKSSQSLLYSNGKTYLNWLQQRPGQSPKRLIYQVSKLDPGIPDRFSGSGSETDFTLKISRVEAEDLGIYYCMQGASLPWTFGGGTKLEIKR
Completion: 0.0336
